These measurements were taken from patent US20210179578A1.

Target: human OX2 receptor (Homo sapiens)
Sequence (O43614 whole entry): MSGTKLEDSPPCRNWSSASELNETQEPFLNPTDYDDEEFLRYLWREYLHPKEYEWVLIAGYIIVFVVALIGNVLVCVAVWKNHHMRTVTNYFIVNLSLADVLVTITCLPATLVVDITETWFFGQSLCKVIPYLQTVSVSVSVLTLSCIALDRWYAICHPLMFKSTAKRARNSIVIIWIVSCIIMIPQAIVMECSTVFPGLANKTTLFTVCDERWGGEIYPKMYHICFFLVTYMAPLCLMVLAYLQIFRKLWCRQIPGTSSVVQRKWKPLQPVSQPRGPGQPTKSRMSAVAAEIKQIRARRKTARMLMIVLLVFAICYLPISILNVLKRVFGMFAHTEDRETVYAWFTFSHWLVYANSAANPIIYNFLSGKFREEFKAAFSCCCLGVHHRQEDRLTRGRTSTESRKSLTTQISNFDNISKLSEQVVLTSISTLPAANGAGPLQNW
Experiment: [3H]-radioligand binding assay, OX2
Set-up: made in house; host or cells: SF21 insect cells (baculovirus; P0 virus made in SF9)
Conditions: [3H]-radioligand binding, human OX2 membranes; read-out: pKi average OX2 (converted)
Quick reference for Ki among some molecules

- MOLECULE: "COc1ncc(N2CCc3c(F)cccc3N(Cc3c(F)cc(Br)cc3F)C2=O)cc1C(C)(F)F"
  REPORTED MEASUREMENT: "> 79.4 nM"
- MOLECULE: "COc1ncc(C2CCc3c(F)cccc3N(Cc3c(F)cc(Br)cc3F)C2=O)cc1C(C)(F)F (single isomer, unassigned) [Example 12]"
  REPORTED MEASUREMENT: "> 398 nM"
- MOLECULE: "COc1ncc(C2CCc3c(F)cccc3N(Cc3c(F)cc(Br)cc3F)C2=O)cc1C(C)(F)F (single isomer, unassigned) [Example 11]"
  REPORTED MEASUREMENT: "> 126 nM"
- MOLECULE: "COc1ccc(CN2C(=O)N(c3cnc(OC)c(C(C)(F)F)c3)CCc3c(F)cccc32)c(F)c1"
  REPORTED MEASUREMENT: "63.1 nM"
- MOLECULE: "COc1ncc(N2CCc3c(F)cccc3N(Cc3c(F)cc(Br)cc3F)C2=O)cc1S(C)(=O)=O"
  REPORTED MEASUREMENT: "> 251 nM"

Noted for Cc1ncc(C2CCc3c(F)cccc3N(Cc3cc(C#N)ccc3F)C2=O)cc1C(C)(F)F (single isomer, unassigned) : its Ki reads > 501 nM

Noted for Cc1ncc(C2CCc3c(F)cccc3N(Cc3c(F)cc(Br)cc3F)C2=O)cc1C(C)(F)F (single isomer, unassigned) [Example 35] : its Ki reads > 126 nM

Noted for `COCc1cc(F)c(CN2C(=O)N(c3cc(C(C)(F)F)c(OC)nc3OC)CCc3c(F)cccc32)c(F)c1` : its Ki reads > 158 nM

Noted for COCc1cc(F)c(CN2C(=O)C(c3cnc(C)c(C(C)(F)F)c3)CCc3c(F)cccc32)c(F)c1 (single isomer, unassigned) : its Ki reads > 15.8 nM

Noted for `[2H]C([2H])([2H])Oc1cc(F)c(CN2C(=O)N(c3cnc(OC)c(C(C)(F)F)c3)CCc3c(F)cccc32)c(F)c1` : its Ki reads 100 nM
